target-desc: LXRβ (Homo sapiens)
Construct: Co-transfection expression plasmids, comprising full-length LXRα (pCMX-h LXRα[…] or LXRβ (pCMX-hLXRβ))
experiment-notes: Co-transfection assay (LXRE luciferase reporter), LXRβ
experimental-conditions: CV-1 cells transfected with pCMX-hLXRβ and LXREx1-Tk-Luciferase; 20 hours incubation
// classify: if (EC50 < 100 nM) class 1 else class 0

Field: example entries. Status: answers known.
[
  {
    "smiles-representation": "Cc1nc(-c2cc(-c3ccc(CO)c(S(C)(=O)=O)c3)ccc2-n2cc(C(F)(F)F)nc2C)c(-c2ccc(OC(F)F)cc2)o1",
    "cat": "class 1"
  },
  {
    "smiles-representation": "Cc1nc(-c2cc(-c3cccc(S(C)(=O)=O)c3)ccc2-n2cc(C(F)(F)F)nc2C)c(-c2ccc(F)c(F)c2)o1",
    "cat": "class 0"
  },
  {
    "smiles-representation": "Cc1nc(C(F)(F)F)cn1-c1ccc(-c2ccc(CO)c(S(C)(=O)=O)c2)cc1-c1nc(C(C)C)oc1-c1ccc(OC(F)(F)F)cc1",
    "cat": "class 1"
  },
  {
    "smiles-representation": "Cc1nc(-c2cc(-c3cc(F)c(CO)c(S(C)(=O)=O)c3)ccc2-n2cc(C(F)(F)F)nc2C)c(-c2ccc(OC(F)F)c(F)c2)o1",
    "cat": "class 1"
  },
  {
    "smiles-representation": "Cc1nc(C(F)(F)F)cn1-c1ccc(-c2cccc(S(C)(=O)=O)c2)cc1-n1nncc1-c1ccc(F)c(OC(F)(F)F)c1",
    "cat": "class 0"
  }
]

Q) Input COCc1c(F)cc(-c2cc(F)c(-n3cc(C(F)(F)F)nc3C)c(-n3nncc3-c3ccc(Cl)cc3)c2)cc1S(C)(=O)=O ; condition: EC50 strictly below 100 nM. Does it hold?
A) class 0

====

target-desc: LXRβ (Homo sapiens)
Construct: Co-transfection expression plasmids, comprising full-length LXRα (pCMX-h LXRα[…] or LXRβ (pCMX-hLXRβ))
experiment-notes: Co-transfection assay (LXRE luciferase reporter), LXRβ
experimental-conditions: CV-1 cells transfected with pCMX-hLXRβ and LXREx1-Tk-Luciferase; 20 hours incubation
outcome-measure: pEC50
Entry type: numeric. Quantity: pEC50, the -log10 of concentration in molar units.

Known pEC50 results, listed for orientation:
[
  {
    "molecule": "Cc1nc(C2CC2)cn1-c1ccc(-c2cccc(S(C)(=O)=O)c2)cc1-n1nncc1-c1ccc(Cl)cc1",
    "pEC50": 5.59
  },
  {
    "molecule": "COc1cc(-c2oc(C)nc2-c2cc(-c3cc(F)c(CO)c(S(C)(=O)=O)c3)ccc2-n2cc(C(F)(F)F)nc2C)ccc1OC(F)F",
    "pEC50": 7.74
  },
  {
    "molecule": "Cc1nc(C(F)(F)F)cn1-c1ccc(-c2ccc(CO)c(S(C)(=O)=O)c2)cc1-c1nc(CC(C)O)oc1-c1ccc(OC(F)(F)F)cc1 (stereo not drawn)",
    "pEC50": 6.21
  },
  {
    "molecule": "Cc1nc(-c2ccc3c(c2)OC(F)(F)O3)c(-c2cc(-c3cc(F)c(CO)c(S(C)(=O)=O)c3)ccc2-n2cc(C(F)(F)F)nc2C)o1",
    "pEC50": 7.43
  },
  {
    "molecule": "Cc1nc(C(F)(F)F)cn1-c1ccc(-c2cccc(S(C)(=O)=O)c2)cc1-n1nncc1C(=O)c1ccc(Cl)cc1",
    "pEC50": 6.27
  }
]

We next turn to a different molecule, shown below.
Q) Indicate the recorded pEC50 value for this molecule: Cc1nc(C(F)(F)F)cn1-c1ccc(-c2cccc(S(C)(=O)=O)c2)cc1-n1nncc1Cc1ccccc1OC(F)(F)F
A) 5.96

====

target-desc: LXRβ (Homo sapiens)
Construct: Co-transfection expression plasmids, comprising full-length LXRα (pCMX-h LXRα[…] or LXRβ (pCMX-hLXRβ)); expressed in transfected cells; host or cells: CV-1 African Green Monkey Kidney Cells
Sequence (P55055 1-460): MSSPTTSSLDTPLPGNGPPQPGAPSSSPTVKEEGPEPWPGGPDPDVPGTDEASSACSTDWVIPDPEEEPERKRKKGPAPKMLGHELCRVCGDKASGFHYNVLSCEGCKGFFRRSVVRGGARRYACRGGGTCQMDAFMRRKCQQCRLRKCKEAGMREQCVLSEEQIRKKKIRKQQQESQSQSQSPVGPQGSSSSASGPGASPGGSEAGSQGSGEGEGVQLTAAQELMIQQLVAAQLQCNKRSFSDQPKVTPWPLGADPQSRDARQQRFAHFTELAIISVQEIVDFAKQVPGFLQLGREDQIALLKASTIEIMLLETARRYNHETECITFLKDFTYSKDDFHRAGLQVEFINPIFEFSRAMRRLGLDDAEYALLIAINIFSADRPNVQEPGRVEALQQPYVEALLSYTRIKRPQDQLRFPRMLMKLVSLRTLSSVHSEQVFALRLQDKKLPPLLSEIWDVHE
Sequence (P19793 1-462 partner): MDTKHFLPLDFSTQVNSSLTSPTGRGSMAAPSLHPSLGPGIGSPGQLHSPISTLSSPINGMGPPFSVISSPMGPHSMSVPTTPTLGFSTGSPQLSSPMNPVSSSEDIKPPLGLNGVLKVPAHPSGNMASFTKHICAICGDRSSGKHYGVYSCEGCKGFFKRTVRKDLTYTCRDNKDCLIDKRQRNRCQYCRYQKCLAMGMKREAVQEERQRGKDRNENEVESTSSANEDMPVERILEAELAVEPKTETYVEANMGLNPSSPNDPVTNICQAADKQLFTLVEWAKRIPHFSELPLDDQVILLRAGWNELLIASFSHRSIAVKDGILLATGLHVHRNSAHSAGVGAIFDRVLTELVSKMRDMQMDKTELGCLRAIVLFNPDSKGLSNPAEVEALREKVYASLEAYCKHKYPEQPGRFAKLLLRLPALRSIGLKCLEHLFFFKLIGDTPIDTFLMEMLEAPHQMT
experiment-notes: Co-transfection assay (LXRE luciferase reporter), LXRβ
Format: cell-based
experimental-conditions: LXRβ co-transfection; relative to high control 1-(2,4-difluorobenzyl)-2-oxo-6-(4-phenoxyphenyl)-4-(trifluoromethyl)-1,2-dihydropyridine-3-carbonitrile; read-out: % Efficacy
outcome-measure: Emax (%)
Could you give me the number in %? Just the number is fine.

[
  {
    "compound": "CS(=O)(=O)c1cccc(-c2cc(F)c(-n3cnc(C(F)(F)F)c3)c(-n3nncc3-c3ccc(OC(F)(F)F)cc3)c2)c1",
    "measurement-unit": "%",
    "measurement": 89
  }
]

Q) Provide Emax, system LXRβ (Homo sapiens), entry Cc1nc(C(F)(F)F)cn1-c1ccc(-c2cccc(S(C)(=O)=O)c2)cc1-c1nc(CC(C)O)oc1-c1ccc(OC(F)(F)F)cc1 (stereo not shown)
A) 82

Q) Write down the reported Emax (system: LXRβ (Homo sapiens)) of Cc1nc(C(F)(F)F)cn1-c1ccc(-c2cc(F)c(CO)c(S(C)(=O)=O)c2)cc1-c1ccnn1-c1ccc(Cl)nc1
A) 75

Q) Under LXRβ (Homo sapiens): report Emax of Cc1nc(-c2ccc(Cl)cc2Cl)c(-c2cc(-c3cc(F)c(CO)c(S(C)(=O)=O)c3)ccc2-n2cc(C(F)(F)F)nc2C)o1 .
A) 91

Q) Provide Emax, recorded with LXRβ (Homo sapiens), of Cc1nc(C(F)(F)F)cn1-c1ccc(-c2cc(F)cc(S(C)(=O)=O)c2)cc1-c1nc(C(F)(F)F)cn1-c1ccc2c(c1)OC(F)(F)O2
A) 59

Q) State Emax (LXRβ (Homo sapiens)) of COc1ccc(-c2cnnn2-c2cc(-c3cccc(S(C)(=O)=O)c3)ccc2-n2cc(C(F)(F)F)nc2C)cc1 .
A) 93

Q) Output reported Emax of the compound Cc1nc(-c2cc(-c3cccc(S(C)(=O)=O)c3)ccc2-n2cc(C(F)(F)F)nc2C)c(-c2ccc(OC(F)F)c(F)c2)o1 on LXRβ (Homo sapiens).
A) 84

Q) Provide LXRβ (Homo sapiens) Emax reading for Cc1nc(C(F)(F)F)cn1-c1ccc(-c2cc(F)c(CO)c(S(C)(=O)=O)c2)cc1-n1nncc1C(=O)c1ccc(Cl)cc1 .
A) 64

Q) Report value: Emax, system: LXRβ (Homo sapiens), compound: Cc1nc(-c2cc(-c3cccc(S(C)(=O)=O)c3)ccc2-n2cc(C(F)(F)F)nc2C)c(-c2ccc3c(c2)C(O)C(F)(F)O3)o1 (stereo not shown)
A) 77

Q) Given Cc1nc(C(F)(F)F)cn1-c1cc(F)c(-c2cccc(S(C)(=O)=O)c2)cc1-n1nncc1-c1ccc(Cl)cc1 , report its Emax on LXRβ (Homo sapiens).
A) 97

Q) Given Cc1nc(C(F)(F)F)cn1-c1ccc(-c2cccc(S(C)(=O)=O)c2)cc1-n1nncc1-c1ccc2c(c1)OCO2 , report its Emax on LXRβ (Homo sapiens).
A) 65

Q) State Emax on LXRβ (Homo sapiens). Entry: Cc1nc(C(F)(F)F)cn1-c1ccc(-c2cccc(S(C)(=O)=O)c2)cc1-n1nncc1CCc1ccc(Cl)cc1
A) 65

Q) Please tell me the measured Emax for Cc1nc(-c2cc(-c3cccc(S(C)(=O)=O)c3)ccc2-n2cc(C(F)(F)F)nc2C)c(-c2ccc3c(c2)CCC3)o1 ; system: LXRβ (Homo sapiens).
A) 53
